Target Under Test: T1, HumanB7-H4 (Homo sapiens, UniProt Q7Z7D3)
T1 construct: Human B7H4 ECD; FLAG; 10His; made in house
T1 sequence (Q7Z7D3 25-259 limits assumed): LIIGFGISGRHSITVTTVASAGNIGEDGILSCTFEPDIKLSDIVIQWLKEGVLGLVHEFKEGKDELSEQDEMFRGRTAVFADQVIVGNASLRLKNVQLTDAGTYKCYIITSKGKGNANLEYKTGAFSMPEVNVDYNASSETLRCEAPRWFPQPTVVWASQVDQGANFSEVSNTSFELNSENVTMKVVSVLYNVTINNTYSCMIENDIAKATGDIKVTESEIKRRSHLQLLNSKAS
Test: ForteBio Octet affinity
Assay type: binding
Condition Description: hIgG1 (n = 1)

{"Molecule": "ZY0EPQ-E02: anti-B7-H4 antibody clone, VH SEQ ID NO: 31, VL SEQ ID NO: 32 (antibody, V domains shown) VH: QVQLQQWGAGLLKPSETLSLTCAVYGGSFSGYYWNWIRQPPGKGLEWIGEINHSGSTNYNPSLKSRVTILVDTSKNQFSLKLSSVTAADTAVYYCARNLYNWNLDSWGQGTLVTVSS VL: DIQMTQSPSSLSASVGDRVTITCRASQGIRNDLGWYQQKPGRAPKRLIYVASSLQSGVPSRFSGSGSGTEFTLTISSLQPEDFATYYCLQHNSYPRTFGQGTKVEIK", "kon": "85900 M⁻¹ s⁻¹"}
